# testedOn: T1, HLA-B*0702 (human)
# T1 construct: also called HLA-B7
# assayText: HLA-B7 eluate MS; AML1; 1 means <1 copy/cell
Non-standard residues stand in square brackets, D forms with d. No end group written: not given here. pS = N[C@@H](COP(=O)(O)O)C(=O)O
property: binding result

{"binder": "LPA[pS]PRARL [MAP7D1 phosphopeptide LPAsPRARL]", "property": "binding result", "result": "binds"}
{"binder": "EPKRR[pS]ARL [HMGN1 phosphopeptide EPKRRsARL]", "property": "binding result", "result": "binds"}
{"binder": "YQR[pS]FDEVEGV [GIGYF2 phosphopeptide YQRsFDEVEGV]", "property": "binding result", "result": "binds"}
{"binder": "VPR[pS]PKHAHSSSL (also called Supervillin) [SVIL phosphopeptide VPRsPKHAHSSSL]", "property": "binding result", "result": "binds"}
{"binder": "SPEKAGRR[pS]SL [CCDC88B phosphopeptide SPEKAGRRsSL]", "property": "binding result", "result": "binds"}
{"binder": "SPGLARKR[pS]L [ZFP106 phosphopeptide SPGLARKRsL]", "property": "binding result", "result": "binds"}
{"binder": "RPR[pS]PGSNSKV [GTF2IRD1 phosphopeptide RPRsPGSNSKV]", "property": "binding result", "result": "binds"}
{"binder": "RPR[pS]PAARL [ZNF219 phosphopeptide RPRsPAARL]", "property": "binding result", "result": "binds"}
